Recorded pKd, one value per entry.
biological target: T1, Y. pestis LcrV protein (Yersinia pestis KIM5, UniProt P0C7U7 1-326); experiment: SPR, BIACORE T200, LcrV on CM5 chip, kd/ka
T1 construct: also called LcrV antigen
T1 sequence (P0C7U7 whole entry): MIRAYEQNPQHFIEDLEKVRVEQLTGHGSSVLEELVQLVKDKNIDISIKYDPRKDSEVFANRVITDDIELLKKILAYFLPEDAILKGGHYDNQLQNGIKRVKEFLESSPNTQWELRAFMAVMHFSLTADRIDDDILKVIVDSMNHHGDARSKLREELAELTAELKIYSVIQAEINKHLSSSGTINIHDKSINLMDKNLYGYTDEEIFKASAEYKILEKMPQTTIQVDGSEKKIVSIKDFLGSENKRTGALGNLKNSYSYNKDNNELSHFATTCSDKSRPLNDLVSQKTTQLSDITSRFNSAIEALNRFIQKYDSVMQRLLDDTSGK
In textbook form, pKd equals minus log to base ten of the concentration in mol/L.

Example entries begin here.
Binder	pKd
1LCRV81 (VHH) VHH: QVQLQESGGGSVQPGGSLKLSCAASGFTFNWYTMAWYRQVPGEERKMVATITGASGDTKYADSVKGRSTISRDNAKNTVTLQMNSLKPGDTAVYYCHACLTYDSGSVKGVNYWGQGTQVTVSS	8.46
1LCRV31 (VHH) VHH: QVQLQESGGGLVQPGGSLGLSCAASGSLLNIYAMGWYRQAPGRQRELVATVTSSGTAEYADSVKGRFTISRDNAKNTVYLQMNSLRPEDTGVYYCNAHLRYGDYVRGPPEYNYWGQGTQVTVSS	11.72
1LCRV28 (VHH) VHH: QVQLQESGGGLVQPGGSLRLSCAASGGTLGYYAIGWFRQAPGKEREAVSCITSSDTSAYYADSAKGRFTISRDNAKNTMYLQMNNLKPEDTAVYYCAAGYYFRDYSDSYYYTGTGMKVWGKGTQVTVSS	9.72
2LCRV11 (VHH) VHH: QVQLQESGGGLVQPGGSTRLSCAASGFTLDIYAIGWFRQAPGKEHEGVSWIVGNDGRTYYIDSVKGRFTISRDNAKNTVYLEMNSLKPEDTAVYYCAAKFWPRYYSGRPPVGRDGYDYWGQGTQVTVSS	8.09
1LCRV13 (VHH) VHH: QVQLQESGGGLVRPGGSLKLSCAASGFTFNWYTMAWYRQVPGEERKMVATITGASGDTKYADSVKGRFTISRDNAKNTVTLQMNSLKPGDTAVYYCHAYLTYDSGSVKGVNYWGQGTQVTVSS	12.20

For the next question, use this binder.
Ask: Provide measured pKd value, entry: 1LCRV32 (VHH) VHH: QVQLQESGGGMVEPGGSLRLSCAASGFRFSSYAMSWVRQAPGKGLERVSAINSDGDKTSYADSVKGRFTISRDNARNTLYLQMSNLKPEDTAVYYCADRDLYCSGSMCKDVLGGARYDFRGQGTQVTVSS
Result: 7.66
